molecular target: BTK (Homo sapiens (Human)); assay: biochemical
quantity-name: IC50

>  <compound>
C=CC(=O)N1CCC[C@H]1c1nc(-c2ccc(COc3ccc(F)cc3)cc2)c2cnccn12 [Example 126]

>  <IC50>
0.01 to 0.1 µM

$$$$
>  <compound>
CC#CC(=O)N1CCC[C@H]1c1nc(-c2ccc(C(=O)Nc3ccccn3)cc2)c2cncc(C)n12 [Example 173]

>  <IC50>
1 to 10 µM

$$$$
>  <compound>
C=CC(=O)N1CCC[C@H]1c1nc(-c2ccc(Oc3cccc(C)c3C)cc2)c2cnccn12 [Example 12]

>  <IC50>
0.01 to 0.1 µM

$$$$
>  <compound>
CC#CC(=O)N1CCCC[C@H]1c1nc(-c2ccc(COc3cccc(F)c3)cc2)c2c(C)nccn12 [Example 157]

>  <IC50>
0.1 to 1 µM

$$$$
>  <compound>
CC#CC(=O)N1CCCC[C@H]1c1nc(-c2ccc(Oc3cccc(OC)c3)cc2)c2c(C)nccn12 [Example 49]

>  <IC50>
0.01 to 0.1 µM

$$$$

[ask] # input compound: CC#CC(=O)N1CCCC[C@H]1c1nc(-c2ccc(Oc3cccc(Cl)c3F)cc2)c2cnccn12 [Example 47] ; wanted: its IC50
[reply] 0.1 to 1 µM

[ask] Follow-up entry: CC#CC(=O)N1CC[C@@H](c2nc(-c3ccc(Oc4cccc(OC)c4F)cc3)c3c(CO)nccn23)C1 [Example 119]
[reply] 0.01 to 0.1 µM

[ask] Another: CC#CC(=O)N1CCCC[C@H]1c1nc(-c2ccc(C(=O)Nc3ccccn3)cc2)c2cnccn12 [Example 169]
[reply] 0.1 to 1 µM

[ask] C=CC(=O)N1CCCC[C@H]1c1nc(-c2ccc(COc3cccc(F)c3F)cc2)c2cnccn12 [Example 158] ?
[reply] 0.1 to 1 µM

[ask] Also CC#CC(=O)N1CC[C@@H](c2nc(-c3ccc(Oc4cccc(OC)c4F)cc3)c3cncc(OC4CCC4)n23)C1 [Example 101] , if possible.
[reply] 0.01 to 0.1 µM

* * *

Entries and their pIC50 values follow.
biological target: BTK (Homo sapiens (Human), UniProt Q06187); assay: biochemical
Sequence (Q06187 whole entry, looked up, species assumed): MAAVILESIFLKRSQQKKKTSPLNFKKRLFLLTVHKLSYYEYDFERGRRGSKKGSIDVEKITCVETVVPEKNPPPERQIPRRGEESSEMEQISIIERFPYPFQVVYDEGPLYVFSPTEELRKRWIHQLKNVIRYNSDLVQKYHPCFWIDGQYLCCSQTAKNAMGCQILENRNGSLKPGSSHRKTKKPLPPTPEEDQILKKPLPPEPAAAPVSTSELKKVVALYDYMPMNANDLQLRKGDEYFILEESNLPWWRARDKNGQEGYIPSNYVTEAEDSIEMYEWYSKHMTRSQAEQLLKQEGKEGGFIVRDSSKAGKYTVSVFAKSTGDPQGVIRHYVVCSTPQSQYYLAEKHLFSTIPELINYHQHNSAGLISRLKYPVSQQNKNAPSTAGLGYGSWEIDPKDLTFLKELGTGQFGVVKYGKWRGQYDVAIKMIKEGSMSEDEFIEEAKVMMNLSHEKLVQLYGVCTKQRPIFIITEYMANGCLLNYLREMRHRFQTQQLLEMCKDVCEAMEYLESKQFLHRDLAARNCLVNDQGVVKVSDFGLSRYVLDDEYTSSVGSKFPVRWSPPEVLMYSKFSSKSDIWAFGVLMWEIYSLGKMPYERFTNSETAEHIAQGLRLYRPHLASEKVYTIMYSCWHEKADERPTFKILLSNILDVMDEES
pIC50: −log10 of the molar value.

Some entries whose results are on file:
>  <compound-string>
CC#CC(=O)N1CC[C@@H](c2nc(-c3ccc(Oc4cccc(OC)c4F)cc3)c3cncc(OC(C)C)n23)C1

>  <result>
6.00 to 7.00

$$$$
>  <compound-string>
C=CC(=O)N1CCCC[C@H]1c1nc(-c2cccc(OCc3cccc(C(F)(F)F)c3)c2)c2c(C)nccn12

>  <result>
5.00 to 6.00

$$$$
>  <compound-string>
C=CC(=O)N1CCCC[C@H]1c1nc(-c2ccc(Oc3cccc(Cl)c3F)cc2)c2c(C)nccn12

>  <result>
7.00 to 8.00

$$$$
>  <compound-string>
C=CC(=O)N1CCC[C@H]1c1nc(-c2ccc(COc3ccccc3)cc2)c2cnccn12

>  <result>
7.00 to 8.00

$$$$
>  <compound-string>
CC#CC(=O)N1CCC[C@H]1c1nc(-c2ccc(COc3ccc(F)c(F)c3)cc2)c2cnccn12

>  <result>
5.00 to 6.00

$$$$

[ask] Which pIC50 is reported for this molecule? `CC#CC(=O)N1CCC[C@H]1c1nc(-c2ccc(Oc3cccc(OC(C)C)c3)cc2)c2cnccn12`
[reply] 6.00 to 7.00

[ask] Next molecule up: `C=CC(=O)N1CCCC[C@H]1c1nc(-c2ccc(COc3ccc(F)c(F)c3)cc2)c2c(C)nccn12`
[reply] 7.00 to 8.00

[ask] Param item: `COc1cccc(Oc2ccc(-c3nc([C@@H]4CCCN(C(=O)/C(C#N)=C/C(C)(C)C)C4)n4ccncc34)cc2)c1F`
[reply] 7.00 to 8.00

[ask] Now the same for `CC#CC(=O)N1CCCC[C@H]1c1nc(-c2ccc(Oc3cccc(OC)c3F)cc2)c2c(C(=O)OC)nccn12`
[reply] 5.00 to 6.00

[ask] Please answer likewise for `C=CC(=O)N1CCCC[C@H]1c1nc(-c2ccc(Oc3cccc(OC)c3F)cc2)c2cncc(C)n12`
[reply] 7.00 to 8.00
